- SYSTEM_NAME: Tyrosinase (Homo sapiens, UniProt P14679)
- Sequence (P14679 whole entry): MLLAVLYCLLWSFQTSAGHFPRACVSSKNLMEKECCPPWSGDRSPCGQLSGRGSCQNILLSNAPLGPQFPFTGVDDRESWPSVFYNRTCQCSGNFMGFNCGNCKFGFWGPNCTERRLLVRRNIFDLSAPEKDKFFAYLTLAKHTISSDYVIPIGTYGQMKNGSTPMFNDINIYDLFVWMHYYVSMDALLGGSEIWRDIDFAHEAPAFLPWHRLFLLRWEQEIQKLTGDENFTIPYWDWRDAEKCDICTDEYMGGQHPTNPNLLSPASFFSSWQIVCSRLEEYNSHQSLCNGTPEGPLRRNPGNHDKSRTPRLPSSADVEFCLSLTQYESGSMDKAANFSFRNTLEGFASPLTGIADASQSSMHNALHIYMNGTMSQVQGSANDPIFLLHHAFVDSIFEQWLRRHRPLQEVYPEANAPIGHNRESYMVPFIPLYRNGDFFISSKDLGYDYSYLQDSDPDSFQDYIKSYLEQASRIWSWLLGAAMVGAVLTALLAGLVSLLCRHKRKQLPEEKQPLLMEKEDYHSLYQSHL
Threshold 8 µM: IC50 strictly smaller gives criterion met, otherwise criterion not met.

Reference set, count: 3
COc1cc([N+](=O)[O-])ccc1/C=C/C(=N\O)c1ccccc1O; criterion met
CC(C)=CCc1c(O)ccc(C[C@@H]2[C@H](c3c(O)ccc(C(=O)/C=C/c4ccc(O)cc4O)c3O)C=C(C)C[C@H]2c2ccc(O)cc2O)c1O; criterion met
C=C(C)C(=O)Cc1c(-c2ccc(O)cc2O)oc2c3c(cc(O)c2c1=O)OC(C)(C)C=C3; criterion not met

Consider the molecule Oc1ccc(/C=C/c2cc(O)cc(O)c2)cc1 [RESVERATROL] . Is its IC50 strictly less than 8 µM? criterion not met

Consider the molecule "O=C1C[C@@H](c2ccc(O)cc2O)Oc2cc(O)cc(O)c21" . Is its IC50 strictly less than 8 µM? criterion met

Consider the molecule "C/C(=C\Cc1c(O)ccc(C(=O)/C=C/c2ccc(O)cc2O)c1O)CO" . Is its IC50 strictly less than 8 µM? criterion met

====

- MEASUREMENT_PROTOCOL: Cytotoxicity against mouse B16 cells assessed as cell viability at 1000 uM after 48 hrs by MTT assay relative to control
- Type: cell-based
- CONDITION_SUMMARY: read-out: Activity
MEASURED_ENDPOINT: viability at 48 h, 1000 µM

Please list viability at 48 h, 1000 µM recorded for the molecule CC(C)=CCC[C@](C)(O[C@@H]1O[C@H](CO[C@@H]2O[C@H](CO)[C@@H](O)[C@H](O)[C@H]2O)[C@@H](O)[C@H](O)[C@H]1O)[C@H]1CC[C@]2(C)[C@@H]1[C@H](O)C[C@@H]1[C@@]3(C)CC[C@H](O[C@@H]4O[C@H](CO)[C@@H](O)[C@H](O)[C@H]4O[C@@H]4O[C@H](CO)[C@@H](O)[C@H](O)[C@H]4O)C(C)(C)[C@@H]3CC[C@]12C [GINSENOSIDE RB1] 4.67%

====

What follows is a record of IC50 for Tyrosinase (Agaricus bisporus, UniProt O42713).
I only need the number, in µM, no unit after it.

Here are 3 compounds together with their reported answers.
O=C1/C(=C/c2ccc(O)cc2)Oc2cc(O)cc(O)c21; 38.7
O=C1/C(=C/c2ccc(O)cc2)Oc2cccc(O)c21; 31.7
O=C1/C(=C/c2ccc(O)cc2)Oc2cc(O)ccc21; 38.4

API: the following record is the query input.
Please list IC50 recorded for the compound "O=C1/C(=C/c2ccc(=O)n(O)c2)Oc2cc(O)ccc21" 1.5

====

- SYSTEM_NAME: Tyrosinase (Homo sapiens, UniProt P14679)
- MEASUREMENT_PROTOCOL: Inhibition of human tyrosinase after 120 mins
MEASURED_ENDPOINT: IC50

Report value: IC50, system: Tyrosinase (Homo sapiens, UniProt P14679), compound: "O=C(O)/C=C/c1ccc(O)cc1" 3 µM

====

- SYSTEM_NAME: Tyrosinase (Agaricus bisporus)
- Sequence (O42713 whole entry): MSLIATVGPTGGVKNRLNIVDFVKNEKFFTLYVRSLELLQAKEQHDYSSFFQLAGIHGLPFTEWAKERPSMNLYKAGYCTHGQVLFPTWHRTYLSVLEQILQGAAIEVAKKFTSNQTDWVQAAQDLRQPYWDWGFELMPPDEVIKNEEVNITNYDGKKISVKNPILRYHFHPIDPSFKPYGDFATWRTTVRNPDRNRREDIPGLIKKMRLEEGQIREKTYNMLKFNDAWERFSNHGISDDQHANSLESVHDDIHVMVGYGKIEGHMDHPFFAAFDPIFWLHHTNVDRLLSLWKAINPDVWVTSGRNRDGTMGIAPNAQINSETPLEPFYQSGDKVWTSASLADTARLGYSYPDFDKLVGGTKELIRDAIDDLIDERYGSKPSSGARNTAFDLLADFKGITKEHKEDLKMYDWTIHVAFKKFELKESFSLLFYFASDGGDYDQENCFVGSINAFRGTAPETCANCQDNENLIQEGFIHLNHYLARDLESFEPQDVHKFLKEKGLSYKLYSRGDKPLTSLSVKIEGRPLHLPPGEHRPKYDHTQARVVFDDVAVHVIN
- MEASUREMENT_PROTOCOL: Inhibition of Agaricus bisporus tyrosinase using L-tyrosine as substrate after 30 mins by spectrophotometric analysis
MEASURED_ENDPOINT: log10 of IC50 (log10 of the value in µM)
Values are log10 of IC50 in µM.

Here are 5 compounds together with their reported answers.
Cc1ccc(S(=O)(=O)Oc2ccccc2/N=N/c2ccc(O)cc2)cc1; 2.30
Cc1ccc(S(=O)(=O)Oc2ccccc2/N=N/c2ccc(O)cc2O)cc1; 1.25
COc1ccc(/N=C/c2ccc(O)c(O)c2)cc1; 1.79
COc1ccc(/N=C/c2ccc(O)cc2O)cc1; 1.71
Oc1ccc(/N=N/c2ccccc2O)cc1; 1.64

API: the following record is the query input.
Please list log10 of IC50 recorded for the compound "Oc1ccc(/N=C/c2ccc(O)c(O)c2)cc1" 1.24
